target: T1, recombinant human PCSK9-His protein (Immunogen A) (human, UniProt Q8NBP7 31-692, limits assumed, biotinylated in the ELISA assays); experiment: ELISA; antibody 0.67 nM
T1 construct: also called hPCSK9-His; His-tagged hPCSK9; not shown: His tag
experimental-readout: OD450 nm (OD450 nm)
Supply the numeric figure in OD450 nm, leaving out any unit text.

Example entries begin here.
[
  {
    "binder": "139G1C5, fully human anti-PCSK9 antibody (antibody, human IgG1, V domains shown) VH: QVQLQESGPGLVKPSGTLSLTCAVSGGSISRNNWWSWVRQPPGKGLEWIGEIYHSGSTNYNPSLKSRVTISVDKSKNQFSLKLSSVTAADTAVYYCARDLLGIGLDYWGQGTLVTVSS VL: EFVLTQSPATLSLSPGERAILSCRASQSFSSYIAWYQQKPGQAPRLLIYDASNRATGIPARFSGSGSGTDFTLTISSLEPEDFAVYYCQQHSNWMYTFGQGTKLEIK",
    "OD450 nm / OD450 nm": 3.05
  },
  {
    "binder": "74C10A8, fully human anti-PCSK9 antibody (antibody, human IgG1, V domains shown) VH: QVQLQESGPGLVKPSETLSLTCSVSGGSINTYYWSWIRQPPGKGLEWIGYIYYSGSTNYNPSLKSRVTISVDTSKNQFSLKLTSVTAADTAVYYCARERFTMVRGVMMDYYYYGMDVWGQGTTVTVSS VL: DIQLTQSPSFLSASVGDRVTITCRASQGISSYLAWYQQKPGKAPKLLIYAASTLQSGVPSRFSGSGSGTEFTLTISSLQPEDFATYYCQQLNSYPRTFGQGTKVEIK",
    "OD450 nm / OD450 nm": 3
  },
  {
    "binder": "152G2F7, fully human anti-PCSK9 antibody (antibody, human IgG1, V domains shown) VH: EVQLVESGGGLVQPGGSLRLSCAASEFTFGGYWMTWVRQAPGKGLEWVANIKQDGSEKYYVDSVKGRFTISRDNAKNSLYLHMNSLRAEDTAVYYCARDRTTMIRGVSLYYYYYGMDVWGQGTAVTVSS VL: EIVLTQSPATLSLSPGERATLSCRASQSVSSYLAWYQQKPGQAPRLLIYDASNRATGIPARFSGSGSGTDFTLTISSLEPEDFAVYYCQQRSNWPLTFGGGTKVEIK",
    "OD450 nm / OD450 nm": 2.91
  }
]

Continue with the binder presented below.
Param item = 76A1B11, fully human anti-PCSK9 antibody (antibody, human IgG1, V domains shown) VH: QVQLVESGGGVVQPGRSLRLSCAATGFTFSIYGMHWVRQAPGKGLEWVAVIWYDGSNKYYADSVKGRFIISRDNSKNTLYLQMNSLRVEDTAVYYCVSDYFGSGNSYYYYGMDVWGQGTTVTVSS VL: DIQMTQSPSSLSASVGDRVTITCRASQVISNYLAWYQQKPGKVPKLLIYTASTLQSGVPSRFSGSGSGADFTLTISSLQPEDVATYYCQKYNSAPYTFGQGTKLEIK ; retrieve measured OD450 nm.
2.77
